Source listed as patent US20090069300A1.

Structures can show the parent of a compound that is named as a salt.
attribute measured: melting point

CCCNC(=O)c1ccc(-c2ccc3c(c2)CCN(CCN2CCCC2)C3=O)cc1 (as salt: hydrochloride) : 240 to 241 °C
CCN(CC)C(=O)c1ccc(-c2ccc3c(c2)CCN(CCN2CCC[C@H]2C)C3=O)cc1 (as salt: hydrochloride) : 221 to 222 °C
O=C(c1ccc(-c2ccc3c(c2)CCN(CCN2CCCC2)C3=O)cc1)N1CCCCC1 (as salt: hydrochloride) : 240 to 241 °C
O=C(c1ccc(-c2ccc3c(c2)CCN(CCN2CCCC2)C3=O)cc1)N1CCCC1 (as salt: hydrochloride) : 245 to 248 °C

[Q] What melting point value was documented for this compound, CNC(=O)c1ccc(-c2ccc3c(c2)C(=O)N(CCN2CCC[C@H]2C)CC3)cc1 (as salt: hydrochloride) ?
[A] 262 to 263 °C

[Q] What melting point value was documented for this compound, O=C(NCCOc1ccccc1)c1ccc(-c2ccc3c(c2)CCN(CCN2CCCC2)C3=O)cc1 (as salt: hydrochloride) ?
[A] 123 to 130 °C

[Q] What melting point value was documented for this compound, O=C(c1ccc2c(c1)CCN(CCN1CCCC1)C2=O)N1Cc2ccccc2C1 (as salt: hydrochloride) ?
[A] 220 to 221 °C

[Q] What melting point value was documented for this compound, CCNC(=O)c1ccc(-c2ccc3c(c2)CCN(CCN2CCCC2)C3)cc1 (as salt: hydrochloride) ?
[A] 266 to 268 °C

[Q] What melting point value was documented for this compound, C[C@@H]1CCCN1CCN1CCc2cc(C(=O)NC3Cc4ccccc4C3)ccc2C1=O (as salt: hydrochloride) ?
[A] 145 to 146 °C

---

Biological target: Human Histamine H3 Receptor (Homo sapiens)
Construct: expressed in transfected cells; host or cells: HEK293T (stably transfected; membranes prepared from the cells)
Sequence (Q9Y5N1 whole entry): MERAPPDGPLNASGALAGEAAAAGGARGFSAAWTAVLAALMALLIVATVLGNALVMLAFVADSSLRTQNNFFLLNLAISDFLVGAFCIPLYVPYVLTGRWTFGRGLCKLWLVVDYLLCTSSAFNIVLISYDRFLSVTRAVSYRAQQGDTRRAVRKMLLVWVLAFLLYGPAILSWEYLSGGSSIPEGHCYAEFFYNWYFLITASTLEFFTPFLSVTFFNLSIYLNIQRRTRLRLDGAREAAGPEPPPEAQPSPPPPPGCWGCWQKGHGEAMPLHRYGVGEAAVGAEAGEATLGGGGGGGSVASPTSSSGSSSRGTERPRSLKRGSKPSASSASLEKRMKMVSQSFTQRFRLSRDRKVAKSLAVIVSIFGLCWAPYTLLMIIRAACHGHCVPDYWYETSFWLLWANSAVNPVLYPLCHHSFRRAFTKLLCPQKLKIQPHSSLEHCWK
Assay: Methyl histamine binding in human histamine H3 receptor cell line
Details: membranes of stably transfected HEK293T cells; methyl histamine radioligand 1 nM; one hour incubation at 30° C.; Ki from IC50 by Cheng-Prusoff; read-out: H3 Binding Ki
attribute measured: Ki

[Q] What Ki value was documented for this molecule, `COC(=O)c1ccc(-c2ccc3c(c2)CCN(CCN2CCC[C@H]2C)C3=O)cc1` ?
[A] < 10 nM

---

Below is a list of entries, each paired with its recorded Ki value.
Target: Human Histamine H3 Receptor (Homo sapiens)
Construct: expressed in transfected cells; host or cells: HEK293T (stably transfected; membranes prepared from the cells)
Assay: Methyl histamine binding in human histamine H3 receptor cell line
Conditions: read-out: H3 Binding Ki
Experimental: Evaluation of Methyl Histamine Binding in Human Histamine H3 Receptor Cell Line The affinity of test compounds for the histamine 3 (H3) receptor is evaluated in the following manner. […] The resulting pellets are stored at −80° C. until ready for use. […] Protein concentration (ug/ul) is determined using the Micro-BCA Protein Determination. […] Non-specific binding is determined in the presence of 10 uM clobenpropit. […] The CPM per well is measured on a Packard Top Count NXT. Ki values are determined in nM. […]

CC(C)NC(=O)c1ccc(Oc2ccc3c(c2)CCN(CCN2CCCC2)C3=O)cc1 : < 10 nM

[Q] What Ki value was documented for this compound, `O=C(NCCOc1ccccc1)c1ccc(-c2ccc3c(c2)CCN(CCN2CCCC2)C3=O)cc1` ?
[A] 50.1 to 100 nM

[Q] What Ki value was documented for this compound, `O=C1c2ccc(-c3ccc(F)c(F)c3)cc2CCN1CCN1CCCC1` ?
[A] < 10 nM

[Q] What Ki value was documented for this compound, `C[C@@H]1CCCN1CCN1CCc2cc(C(=O)N3CCCCCC3)ccc2C1=O` ?
[A] < 10 nM

[Q] What Ki value was documented for this compound, `NC(=O)c1ccc(-c2ccc3c(c2)CCN(CCN2CCCC2)C3)cc1` ?
[A] 10.1 to 25 nM

---

Structures can show the parent of a compound that is named as a salt.
Below is a list of entries, each paired with its recorded melting point value.

# annotated cases, reported melting point shown
N#Cc1cccc(-c2ccc3c(c2)CCN(CCCN2CCCC2)C3=O)c1 (as salt: hydrochloride) : 175 to 176 °C
O=C1c2ccc(-n3ncc4ccccc43)cc2CCN1CCN1CCCC1 : 185 to 186 °C
O=C(c1ccc(-c2ccc3c(c2)CCN(CCN2CCCC2)C3=O)cc1F)N1CCCC1 : 231 to 232 °C

[Q] What melting point value was documented for this compound, NC(=O)c1ccc(-c2ccc3c(c2)CCN(CCN2CCCC2)C3=O)cc1 (as salt: hydrochloride) ?
[A] 268 to 270 °C

[Q] What melting point value was documented for this compound, `CNC(=O)c1ccc(Oc2ccc3c(c2)CCN(CCN2CCCC2)C3=O)cc1` ?
[A] 235 to 236 °C

[Q] What melting point value was documented for this compound, CC(C)OCCNC(=O)c1ccc(-c2ccc3c(c2)CCN(CCN2CCCC2)C3=O)cc1 (as salt: hydrochloride) ?
[A] 164 to 166 °C

[Q] What melting point value was documented for this compound, O=C1c2ccc(-c3ccc(F)cc3)cc2CCN1CCN1CCCCC1 (as salt: hydrochloride) ?
[A] 241 to 243 °C

[Q] What melting point value was documented for this compound, C[C@@H]1CCCN1CCN1CCc2ccc(-c3ccc(C(=O)N4CCCC4)cc3)cc2C1=O (as salt: hydrochloride) ?
[A] 214 to 215 °C

---

Where a name gives a salt, the structure may show the parent alone.
attribute measured: melting point

[Q] What melting point value was documented for this compound, C[C@@H]1CCCN1CCN1CCc2cc(N3CCCC3)ccc2C1=O (as salt: hydrochloride) [Example 165] ?
[A] 182 to 183 °C

---

Below is a list of entries, each paired with its recorded melting point value.
Counter-ions that a name gives are not always drawn.

# annotated cases, reported melting point shown
CC(C)NC(=O)c1ccc(-c2ccc3c(c2)CCN(CCN2CCCC2)C3=O)cc1 (as salt: hydrochloride) [Example 61] : 257 to 259 °C
O=C1c2ccc(-c3ccc(C(F)(F)F)cc3)cc2CCN1CCN1CCCC1 (as salt: hydrochloride) [Example 22] : 243 to 244 °C
O=C1c2ccc(-c3cc(F)cc(F)c3)cc2CCN1CCN1CCCC1 (as salt: hydrochloride) [Example 10] : 196 to 198 °C
COc1ccc2c(c1)CCN(CCN1CCCC1)C2=O (as salt: hydrochloride) : 201 to 202 °C
O=C(NCc1ccco1)c1ccc(-c2ccc3c(c2)CCN(CCN2CCCC2)C3=O)cc1 (as salt: hydrochloride) [Example 125] : 211 to 213 °C

[Q] What melting point value was documented for this compound, Fc1ccc(-c2ccc3c(c2)CCN(CCN2CCCCCC2)C3)cc1 [Example 175] ?
[A] 258 to 260 °C

[Q] What melting point value was documented for this compound, N#Cc1ccc(Oc2ccc3c(c2)CCN(CCN2CCCC2)C3=O)cc1 (as salt: hydrochloride) [Example 50] ?
[A] 146 to 147 °C

[Q] What melting point value was documented for this compound, C[C@@H]1CCCN1CCN1Cc2cc(-c3ccc(C#N)cc3)ccc2C1=O [Example 117] ?
[A] 214 to 216 °C

[Q] What melting point value was documented for this compound, O=C1c2ccc(-c3cccc(F)c3)cc2CCN1CCN1CCCC1 (as salt: hydrochloride) [Example 18] ?
[A] 182 to 184 °C

---

Below is a list of entries, each paired with its recorded pKi value.
Target: Human Histamine H3 Receptor (Homo sapiens)
Construct: expressed in transfected cells; host or cells: HEK293T (stably transfected; membranes prepared from the cells)
Test: Methyl histamine binding in human histamine H3 receptor cell line
Details: read-out: H3 Binding Ki
pKi: −log10 of the molar value. Where a name gives a salt, the structure may show the parent alone.

# annotated cases, reported pKi shown
CN(C)C(=O)c1ccc(-c2ccc3c(c2)CCN(CCN2CCCC2)C3=O)cc1 [Example 56] : > 8.00
O=C(NCc1cccs1)c1ccc(-c2ccc3c(c2)CCN(CCN2CCCC2)C3=O)cc1 [Example 121] : > 8.00
C[C@@H]1CCCN1CCN1CCc2cc(Oc3ccc(C#N)cc3)ccc2C1=O [Example 49] : > 8.00

[Q] Enter reported pKi observed with Human Histamine H3 Receptor (Homo sapiens) for O=C1c2ccc(-n3cccn3)cc2CCN1CCN1CCCC1 [Example 37, hydrochloride]
[A] 7.60 to 8.00

[Q] Enter reported pKi observed with Human Histamine H3 Receptor (Homo sapiens) for COc1ccc(-c2ccc3c(c2)CCN(CCN2CCCC2)C3=O)cc1 [Example 23]
[A] > 8.00

[Q] Enter reported pKi observed with Human Histamine H3 Receptor (Homo sapiens) for CCN(CC)C(=O)c1ccc(-c2ccc3c(c2)CCN(CCN2CCC[C@H]2C)C3=O)cc1 [Example 65]
[A] > 8.00

[Q] Enter reported pKi observed with Human Histamine H3 Receptor (Homo sapiens) for C[C@@H]1CCCN1CCN1CCc2cc(C(=O)N3CCCC3)ccc2C1=O [Example 151]
[A] > 8.00

[Q] Enter reported pKi observed with Human Histamine H3 Receptor (Homo sapiens) for C[C@@H]1CCCN1CCN1CCc2cc(-c3ccc(F)cc3)ccc2C1=O [Example 40]
[A] > 8.00

[Q] Enter reported pKi observed with Human Histamine H3 Receptor (Homo sapiens) for O=C(NC1CCC1)c1ccc(Oc2ccc3c(c2)CCN(CCN2CCCC2)C3=O)cc1 [Example 97]
[A] 7.60 to 8.00

[Q] Enter reported pKi observed with Human Histamine H3 Receptor (Homo sapiens) for CNC(=O)c1ccc(-c2ccc3c(c2)CCN(CCN2CCCC2)C3=O)cc1 [Example 59]
[A] > 8.00

[Q] Enter reported pKi observed with Human Histamine H3 Receptor (Homo sapiens) for O=C(c1ccc(-c2ccc3c(c2)CCN(CCN2CCCC2)C3)cc1)N1CCCC1 [Example 184]
[A] > 8.00

[Q] Enter reported pKi observed with Human Histamine H3 Receptor (Homo sapiens) for O=C(NC1CC1)c1ccc(-c2ccc3c(c2)CCN(CCN2CCCC2)C3=O)cc1 [Example 57]
[A] > 8.00
